Taken from ChEMBL document CHEMBL4390675.

Molecular target: D(3) dopamine receptor (Homo sapiens)
Assay: Antagonist activity at human D3 receptor expressed in CHOK1 cells assessed as inhibition of dopamine-induced beta-arrestin recruitment measured after 90 mins by luminescence assay
Assay type: cell-based
parameterMeasured: IC50

- entrySmiles: "Cc1cccc(NC(=O)CN2CCC(c3ccc(Cl)cc3)CC2)c1"
  parameterMeasured: "IC50"
  reported: "Not Active"
- entrySmiles: "CCc1cccc(NC(=O)CN2CCN(c3ccc(Cl)cn3)CC2)c1"
  parameterMeasured: "IC50"
  reported: "Not Active"
- entrySmiles: "Cc1cccc(NC(=O)CN2CCN(c3ccc(Cl)cn3)CC2)c1"
  parameterMeasured: "IC50"
  reported: "Not Active"
- entrySmiles: "Cc1ccc(C2CCN(CC(=O)Nc3cccc(C)c3)CC2)nc1"
  parameterMeasured: "IC50"
  reported: "Not Active"
- entrySmiles: "O=C(CN1CCN(c2ccccn2)CC1)Nc1cncnc1"
  parameterMeasured: "IC50"
  reported: "Not Active"

# map each compound to its IC50
1. CCc1cccc(NC(=O)CN2CCC(c3ccccn3)CC2)c1
2. O=C(CN1CCN(c2ccccn2)CC1)Nc1cccnc1
3. Cc1cccc(NC(=O)CN2CCN(c3cccc4ccccc34)CC2)c1
4. O=C(CN1CCN(c2ccc(Cl)cn2)CC1)Nc1cccnc1

### Response
Not Active
Not Active
Not Active
Not Active

# map each compound to its IC50
1. O=C(CN1CCN(c2ccc(Cl)cn2)CC1)Nc1cncnc1
2. Cc1ccc(C2CCN(CC(=O)Nc3cccc(C)c3)CC2)cc1

### Response
1. Not Active
2. Not Active

* * *

Target: D(3) dopamine receptor (Homo sapiens, UniProt P35462)
Sequence (P35462 whole entry): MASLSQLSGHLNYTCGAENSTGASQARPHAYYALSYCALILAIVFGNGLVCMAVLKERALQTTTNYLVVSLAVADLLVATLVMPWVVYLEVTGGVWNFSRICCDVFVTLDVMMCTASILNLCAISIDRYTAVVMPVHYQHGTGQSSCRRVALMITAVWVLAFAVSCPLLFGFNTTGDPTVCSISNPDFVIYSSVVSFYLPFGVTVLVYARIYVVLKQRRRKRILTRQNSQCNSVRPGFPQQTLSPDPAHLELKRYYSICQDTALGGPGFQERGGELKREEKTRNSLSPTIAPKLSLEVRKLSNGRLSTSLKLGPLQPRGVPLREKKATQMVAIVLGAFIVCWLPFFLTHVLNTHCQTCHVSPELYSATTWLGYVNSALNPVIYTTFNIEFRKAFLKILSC
Assay: Displacement of [3H]N-methylspiperone from human D3 receptor expressed in HEK293 cell membranes measured after 60 mins by scintillation counting method
Just a reminder that ties go to Not satisfied: only Ki strictly below 3 µM counts as Satisfied.

Worked set:
- entrySmiles: "Cc1cccc(NC(=O)CN2CCN(c3ccc(Cl)cn3)CC2)c1"
  cat: "Not satisfied"
- entrySmiles: "Cc1cccc(NC(=O)CN2CCC(c3ccc(Cl)cc3)CC2)c1"
  cat: "Not satisfied"
- entrySmiles: "Cc1cccc(NC(=O)CCN2CCN(c3ccccn3)CC2)c1"
  cat: "Not satisfied"
- entrySmiles: "CCc1cccc(NC(=O)CN2CCN(c3ccc(Cl)cn3)CC2)c1"
  cat: "Not satisfied"
- entrySmiles: "Cc1cccc(NC(=O)CCN2CCN(c3ncccn3)CC2)c1"
  cat: "Not satisfied"

### Prompt Would you kindly verify if Ki of "CCc1cccc(NC(=O)CN2CCC(c3ccccn3)CC2)c1" is strictly less than 3 µM?
### Response Satisfied

### Prompt Queued: "Cc1cccc(NC(=O)CN2CCN(c3cccc4ccccc34)CC2)c1"
### Response Not satisfied

### Prompt Queued: "O=C(CN1CCN(c2ccccn2)CC1)Nc1cccnc1"
### Response Not satisfied

### Prompt Queued: "Cc1cccc(NC(=O)CN2CCN(c3ccccn3)CC2)c1"
### Response Not satisfied

### Prompt Queued: "O=C(CN1CCN(c2ccc(Cl)cn2)CC1)Nc1cccnc1"
### Response Not satisfied

### Prompt Queued: "Cc1cccc(NC(=O)CN2CCN(c3ncccn3)CC2)c1"
### Response Not satisfied

### Prompt Queued: "O=C(CN1CCN(c2ccccn2)CC1)Nc1cncnc1"
### Response Not satisfied

### Prompt Queued: "Cc1cccc(NC(=O)CN2CCC(c3ccccc3)CC2)c1"
### Response Satisfied

### Prompt Queued: "Cc1cccc(NC(=O)CN2CCC(c3ccccn3)CC2)c1"
### Response Satisfied

### Prompt Queued: "Cc1ccc(C2CCN(CC(=O)Nc3cccc(C)c3)CC2)cc1"
### Response Not satisfied

### Prompt Queued: "Cc1ccc(C2CCN(CC(=O)Nc3cccc(C)c3)CC2)nc1"
### Response Not satisfied

### Prompt Queued: "O=C(CN1CCN(c2ccc(Cl)cn2)CC1)Nc1cncnc1"
### Response Not satisfied

* * *

Target: D(4) dopamine receptor (Homo sapiens)
Experiment: Agonist activity at human D4 receptor expressed in CHOK1 cells assessed as induction of beta-arrestin recruitment measured after 90 mins by luminescence assay
Type: cell-based
Details: read-out: EC50
parameterMeasured: EC50 (nM)
Give bare numbers, in nM.

The examples below pair each entry with its known result.
- entrySmiles: "Cc1cccc(NC(=O)CN2CCN(c3ccccn3)CC2)c1"
  reported: 394
- entrySmiles: "Cc1cccc(NC(=O)CN2CCC(c3ccccc3)CC2)c1"
  reported: 242
- entrySmiles: "CCc1cccc(NC(=O)CN2CCN(c3ccccn3)CC2)c1"
  reported: 133
- entrySmiles: "Cc1cccc(NC(=O)CN2CCN(c3ncccn3)CC2)c1"
  reported: 278

# map each molecule to its EC50
1. O=C(CN1CCN(c2ccccn2)CC1)Nc1cccnc1
2. Cc1cccc(NC(=O)CN2CCN(c3cccc4ccccc34)CC2)c1
3. Cc1cccc(NC(=O)CN2CCC(c3ccccn3)CC2)c1

### Response
1: 2660; 2: 9210; 3: 473

* * *

Target: D(3) dopamine receptor (Homo sapiens, UniProt P35462)
Assay: Displacement of [3H](R)-(+)-7-OH-DPAT from human D3 receptor expressed in HEK293 cell membranes measured after 90 mins by scintillation counting method
parameterMeasured: Ki

- entrySmiles: "Cc1cccc(NC(=O)CN2CCN(c3ccccn3)CC2)c1"
  parameterMeasured: "Ki"
  reported: "6.48 µM"

# map each molecule to its Ki
1. Cc1cccc(NC(=O)CN2CCN(c3cccc4ccccc34)CC2)c1
2. Cc1ccc(C2CCN(CC(=O)Nc3cccc(C)c3)CC2)nc1
3. Cc1cccc(NC(=O)CCN2CCN(c3ncccn3)CC2)c1

### Response
1: 1.25 µM; 2: > 10 µM; 3: 9.35 µM

* * *

Target: D(4) dopamine receptor (Homo sapiens)
Experiment: Agonist activity at human D4 receptor expressed in CHOK1 cells assessed as inhibition of forskolin-induced cAMP accumulation measured after 30 mins by Eu-cAMP tracer based TR-FRET assay
Format: functional, cell-based
Conditions: read-out: EC50
Exercise: state measured EC50 for each of the compounds provided.
Output should be the measured figure followed by the unit it is expressed in.

- entrySmiles: "CCc1cccc(NC(=O)CN2CCN(c3ccccn3)CC2)c1"
  EC50: "28.7 nM"
- entrySmiles: "Cc1cccc(NC(=O)CCN2CCC(c3ccccn3)CC2)c1"
  EC50: "349 nM"
- entrySmiles: "Cc1cccc(NC(=O)CCN2CCN(c3ccccn3)CC2)c1"
  EC50: "612 nM"
- entrySmiles: "Cc1cccc(NC(=O)CN2CCN(c3ncccn3)CC2)c1"
  EC50: "3.4 nM"
- entrySmiles: "Cc1cccc(NC(=O)CN2CCC(c3ccccn3)CC2)c1"
  EC50: "2.7 nM"

### Prompt D(4) dopamine receptor (Homo sapiens) / EC50 / "CCc1cccc(NC(=O)CN2CCC(c3ccccn3)CC2)c1" : value?
### Response 539 nM

* * *

Exercise: state measured pEC50 for each of the molecules provided.
Molecular target: D(3) dopamine receptor (Homo sapiens)
Experiment: Agonist activity at human D3 receptor expressed in CHOK1 cells assessed as induction of beta-arrestin recruitment measured after 90 mins by luminescence assay
Type: cell-based
Settings: read-out: EC50
Numbers only, as −log10 of the molar value.

- entrySmiles: "Cc1cccc(NC(=O)CN2CCN(c3ccccn3)CC2)c1"
  pEC50: 5.20
- entrySmiles: "Cc1cccc(NC(=O)CN2CCN(c3ncccn3)CC2)c1"
  pEC50: 5.25
- entrySmiles: "O=C(CN1CCN(c2ccccn2)CC1)Nc1cccnc1"
  pEC50: 5.55

# map each molecule to its pEC50
1. Cc1cccc(NC(=O)CCN2CCC(c3ccccn3)CC2)c1
2. Cc1cccc(NC(=O)CCN2CCN(c3ccccn3)CC2)c1

### Response
1. 6.01
2. 5.80

* * *

Target: D(4) dopamine receptor (Homo sapiens) (UniProt P21917)
Sequence (whole entry): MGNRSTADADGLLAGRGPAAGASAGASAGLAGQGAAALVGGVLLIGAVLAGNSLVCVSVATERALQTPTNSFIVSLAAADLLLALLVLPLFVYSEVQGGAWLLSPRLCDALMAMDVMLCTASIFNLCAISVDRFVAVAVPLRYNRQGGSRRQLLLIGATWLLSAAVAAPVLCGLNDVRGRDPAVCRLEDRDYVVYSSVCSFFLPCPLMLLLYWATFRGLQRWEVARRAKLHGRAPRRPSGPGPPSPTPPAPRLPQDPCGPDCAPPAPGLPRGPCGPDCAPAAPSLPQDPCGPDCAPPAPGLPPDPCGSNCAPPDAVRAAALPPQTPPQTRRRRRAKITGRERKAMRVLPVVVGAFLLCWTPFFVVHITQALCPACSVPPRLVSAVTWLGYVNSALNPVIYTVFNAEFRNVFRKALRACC
Assay: Antagonist activity at human D4 receptor expressed in CHOK1 cells assessed as suppression of dopamine-induced inhibition of forskolin-stimulated cAMP accumulation measured after 30 mins by Eu-cAMP tracer based TR-FRET assay relative to dopamine
Type: functional, cell-based
Set-up: concentration or dose not given beside the values
parameterMeasured: inhibition

- entrySmiles: "Cc1cccc(NC(=O)CN2CCC(c3ccccn3)CC2)c1"
  inhibition: "53.8%"
- entrySmiles: "Cc1cccc(NC(=O)CN2CCN(c3cccc4ccccc34)CC2)c1"
  inhibition: "73.8%"
- entrySmiles: "Cc1cccc(NC(=O)CN2CCN(c3ncccn3)CC2)c1"
  inhibition: "45%"
- entrySmiles: "O=C(CN1CCN(c2ccccn2)CC1)Nc1cccnc1"
  inhibition: "100%"
- entrySmiles: "Cc1cccc(NC(=O)CN2CCN(c3ccccn3)CC2)c1"
  inhibition: "43.2%"
- entrySmiles: "Cc1cccc(NC(=O)CN2CCC(c3ccccc3)CC2)c1"
  inhibition: "46.7%"

### Prompt inhibition lookup needed for "CCc1cccc(NC(=O)CN2CCN(c3ccccn3)CC2)c1" , thanks.
### Response 58.4%
